Hello, the source for this data is PubChem BioAssay (NCI), in case you need it.

As a worked illustration, we turn to GI50 data collected for NCI-H460 lung.

Consider the following illustrative entries.
[[record]]
compound = "CS(=O)(=O)OCCn1c2c(c3c(O)cccc31)C(=O)c1ccccc1-2"
result_type = "GI50"
result = "> 100 µM"

[[record]]
compound = "O=c1[nH]c2c3ccncc3cc(-c3cccc(Cl)c3)c2c2cnccc12"
result_type = "GI50"
result = "> 100 µM"

[[record]]
compound = "Nc1cc2ccccc2c(O)c1O"
result_type = "GI50"
result = "13 µM"

[[record]]
compound = "CC1CN=C(c2cccc(-c3ccc(-c4ccccc4)o3)c2)N1 (stereo not given)"
result_type = "GI50"
result = "1.83 µM"


Turning now to a further record.
Reported NCI-H460 lung GI50 for item Cc1ccc(/C(=C/C=C(/C#N)C(N)=O)Sc2ncnn2C)cc1 was 4.66 µM

* * *

- Test system: PC-3 prostate
- Protocol: NCI tumour cell line growth inhibition, 48 h
Result type: TGI

Consider the following illustrative entries.
[[record]]
compound = "Cc1ccc(S(=O)(=O)/N=C(\\NO)Nc2ccc(Cl)c(Cl)c2)cc1"
result = "18.4 µM"

[[record]]
compound = "COc1ccc(N2CCOCC2)cc1"
result = "> 100 µM"

[[record]]
compound = "COC(=O)[C@@H](C)C[C@H](Cc1ccccc1)NC(=O)c1nc([C@@H](C[C@H](C(C)C)N(C)C(=O)[C@@H](NC(=O)[C@H]2CCCCN2C)C(C)C)OC(C)=O)sc1C(C)C"
result = "> 33.3 µM"

[[record]]
compound = "COc1cccc(-n2ncc3c(N/N=C/c4cccc(F)c4)ncnc32)c1"
result = "> 25 µM"


So for CCNC(=O)OCC1C2=C(C(=O)C(C)=C(N)C2=O)N2CC3C(N3C)C12OC (stereo not given) , the logged TGI turned out to be > 100 µM

So for COc1ccc(NC=O)c(C(=O)CCNC(C)=O)c1 , the logged TGI turned out to be > 100 µM

So for S=c1[nH]nc(C23CC4CC(CC(C4)C2)C3)n1-c1ccc(Cl)cc1 , the logged TGI turned out to be 93.7 µM

So for COc1ccc(CNC(=O)[C@H](Cc2ccc(O)cn2)NC(C)=O)cc1OC , the logged TGI turned out to be > 100 µM

So for COC1OC(Cn2c(C)nc(Br)c2Br)C(O)C(O)C1O (stereo not given) , the logged TGI turned out to be > 100 µM

So for COc1cc(/C=C\c2cc(/C=C\c3ccc(O)c(OC)c3)n(C(=O)COc3ccccc3)n2)ccc1O , the logged TGI turned out to be > 100 µM

So for COC(=O)CCC1=C(C)C(C)=N/C1=C\c1[nH]c(-c2ccc[nH]2)cc1OC , the logged TGI turned out to be 14.4 µM

So for Cc1cnc(NC2CCOCC2)nc1-n1cnc(C(=O)N[C@H](CN)c2cc(F)cc(Cl)c2)c1 , the logged TGI turned out to be 38.5 µM

So for N=c1c2ccccc2nc2oc3ccccc3n12 , the logged TGI turned out to be > 100 µM

So for COC(=O)CCC(C)[C@H]1CCC2C3C(C[C@H](OC(C)=O)[C@@]21C)[C@@]1(C)CCC2(C[C@H]1C[C@H]3OC(C)=O)OOC1(CCC(C(C)(C)C)CC1)OO2 (stereo not given in full) , the logged TGI turned out to be > 100 µM

* * *

- Test system: HT29 colon
- Protocol: NCI tumour cell line growth inhibition, 48 h
Each entry below carries its reported TGI.

[[record]]
compound = "CC(=O)Nc1ccc(S(=O)(=O)/N=C2\\C=CC(=O)c3ccccc32)cc1"
system_tested = "HT29 colon"
result_type = "TGI"
result = "33.7 µM"

[[record]]
compound = "C1CCC(C(CC2CCCCN2)C2CCCCC2)CC1 (stereo not given)"
system_tested = "HT29 colon"
result_type = "TGI"
result = "3.06 µM"

[[record]]
compound = "COC1OC(Cn2c(C)nc(Br)c2Br)C(O)C(O)C1O (stereo not given)"
system_tested = "HT29 colon"
result_type = "TGI"
result = "> 100 µM"


So for CC(=O)O[C@H]1C(=O)[C@@]2(C)[C@H]([C@H](OC(=O)C3CCCCC3)[C@]3(O)C[C@H](OC(=O)[C@H](O)[C@@H](NC(=O)OC(C)(C)C)c4ccccc4)C(C)=C1C3(C)C)[C@]1(OC(C)=O)CO[C@@H]1C[C@@H]2O , the logged TGI turned out to be > 6.33 µM

So for COc1ccc(NC=O)c(C(=O)CCNC(C)=O)c1 , the logged TGI turned out to be > 100 µM

* * *

- System: DU-145 prostate
- Protocol: NCI tumour cell line growth inhibition, 48 h
Each entry below carries its reported TGI.
Respond numerically; units are µM and should not be typed.

[[record]]
molecule = "Nc1cc2ccccc2c(O)c1O"
result_type = "TGI"
unit_spec = "µM"
result_number = 27.4

[[record]]
molecule = "CCC(C)C1=NC(C(=O)N/C=C\\c2c[nH]c3cc(Br)c(Br)cc23)(C(C)C)NC1=O (stereo not given)"
result_type = "TGI"
unit_spec = "µM"
result_number = 27.4

[[record]]
molecule = "O=C(Nc1ccc(-n2ccc3c(NC(=O)c4ccccc4)ncnc32)cc1)c1ccc(Cl)c(C(F)(F)F)c1"
result_type = "TGI"
unit_spec = "µM"
result_number = 8.46

[[record]]
molecule = "COC(=O)[C@]1(C)CCC[C@]2(C)[C@H]3CC[C@]4(C(C)C)OO[C@@H](O4)[C@]34O[C@@H]4C[C@H]21"
result_type = "TGI"
unit_spec = "µM"
result_number = 3.07

[[record]]
molecule = "O=C(O)c1c[nH]c2cc(OCc3ccccc3)ccc2c1=O"
result_type = "TGI"
unit_spec = "µM"
result_number = 33.3


So for CN1C(=O)C23CC4(C56CC78SSC(CO)(C(=O)N7C5Nc5ccccc56)N(C)C8=O)c5ccccc5NC4N2C(=O)C1(CO)SS3 (stereo not given) , the logged TGI turned out to be 0.195

So for CC(=O)O[C@H]1[C@@H]2OC(=O)C3(CC3)C2C[C@H]2O[C@]2(C)CC/C=C(\C)CCC[C@@H]1C (stereo not given in full) , the logged TGI turned out to be 39.1

So for CNC[C@@H](NC(=O)c1ccc(-c2nc([C@H]3CC[C@H](O)[C@@H](F)C3)cnc2N)cc1F)c1cc(F)cc(Br)c1 , the logged TGI turned out to be 32.8

So for COc1ccc2c(c1)C(=O)c1c-2c(=O)n(CCCCCCC(=O)NO)c2ccccc12 , the logged TGI turned out to be 10.8

So for Oc1ccc(Cl)cc1-c1cc(-c2ccc(Cl)cc2)n[nH]1 , the logged TGI turned out to be 11

* * *

- Tested on: SK-MEL-28 melanoma
- Protocol: NCI tumour cell line growth inhibition, 48 h; in the data active = GI50 below about 0.43 µM; inactive = the rest
// allowed return values: active, inactive

The examples below pair each entry with its known result.
[[record]]
cpd_smiles = "O=C(Cc1ccc(OCc2ccccc2)cc1)NCc1ccc2c(c1)OCO2"
label_class = "inactive"

[[record]]
cpd_smiles = "O=C(c1cccs1)c1c(C(F)(F)F)n([O-])c2ccc(Cl)cc2[n+]1=O"
label_class = "inactive"

[[record]]
cpd_smiles = "Oc1cc(Cn2cnc3c(Cl)nc(Cl)nc32)ccc1C12CC3CC(CC(C3)C1)C2"
label_class = "inactive"

[[record]]
cpd_smiles = "O=c1c2[nH]ccc2nc2n1CCS2"
label_class = "inactive"


For COc1cc(/C=C\c2cc(/C=C\c3ccc(O)c(OC)c3)n(C(=O)COc3ccccc3)n2)ccc1O , what call appears in the results of this test?
inactive

For c1ccc(-c2cccc(-c3ccccn3)n2)nc1 , what call appears in the results of this test?
active

For CN(C)c1ccc(N=Nc2ccc(Br)cn2)c(O)c1 , what call appears in the results of this test?
inactive

For O=c1[nH]c2c3ccncc3cc(-c3cccc(Cl)c3)c2c2cnccc12 , what call appears in the results of this test?
inactive

For CCN1CCN(Cc2ccc(NC(=O)c3nc4ccc5[nH]ncc5c4c4c3CCCC4)cc2C(F)(F)F)CC1 , what call appears in the results of this test?
inactive

For Nc1cc2ccccc2c(O)c1O , what call appears in the results of this test?
inactive

For CCN1C2=C(SC(=S)C1=C1SC(C(=O)OC)=C(C(=O)OC)S1)SC(=Nc1ccc(OC)cc1)C2=O , what call appears in the results of this test?
inactive

* * *

- System: SNB-19 CNS
- Protocol: NCI tumour cell line growth inhibition, 48 h
Result type: TGI

Consider the following illustrative entries.
[[record]]
compound = "Nc1ncnc2c1ncn2C1OC(CO)C2OC21 (centres undefined)"
result = "> 100 µM"

[[record]]
compound = "CN(C)CCn1c(=O)nc2c3c(c([N+](=O)[O-])ccc31)Nc1ccc(O)cc1-2"
result = "16.8 µM"

[[record]]
compound = "Cc1oc2nc[nH]c(=O)c2c1C(=O)/C=C/c1ccc(Br)cc1"
result = "5.44 µM"

[[record]]
compound = "CN(C)c1ccc(N=Nc2ccc(Br)cn2)c(O)c1"
result = "> 100 µM"

[[record]]
compound = "CSc1cc(Cl)c(C)cc1S(=O)(=O)NC(=O)Nc1ccc(Cl)cc1"
result = "92 µM"

[[record]]
compound = "COc1cc(/C=C\\c2cc(/C=C\\c3ccc(O)c(OC)c3)n(C(=O)COc3ccccc3)n2)ccc1O"
result = "9.59 µM"

[[record]]
compound = "Clc1ccc(Cc2nc3cc(Cl)ccc3o2)cc1"
result = "> 100 µM"

[[record]]
compound = "CN(CCCN(C)Cc1ccc(Cl)c(Cl)c1)CCN1CCCC1"
result = "> 100 µM"

[[record]]
compound = "OC(Cc1ccc2ccccc2n1)(C(F)(F)F)C(F)(F)F"
result = "> 10 µM"

[[record]]
compound = "NCC(O)CSP(=O)(O)O (centres undefined)"
result = "> 100 µM"


So for N=C(N)c1ccc(-c2ccc(-c3cccs3)o2)cc1 , the logged TGI turned out to be 7.81 µM

So for C/C(=C1/N=C(c2cc([N+](=O)[O-])ccc2Cl)N(c2ccc(Br)cc2)C1=O)c1cc2ccccc2oc1=O , the logged TGI turned out to be > 100 µM

So for CC(=O)O[C@H](C[C@@H](C)[C@H]1C(=O)[C@H](O)[C@@]2(C)C3CC[C@H]4C(C)(C)[C@@H](OC5OCC(O)C(O)C5O)CC[C@@]45C[C@@]35CC[C@]12C)[C@@H]1OC1(C)C (some centres undefined) , the logged TGI turned out to be 65.4 µM

So for O=C1c2ccccc2C(=O)c2c1ccc(O)c2O , the logged TGI turned out to be > 100 µM

So for COC(=O)CC(=O)OC , the logged TGI turned out to be > 100 µM
